Overview of reported DC50 across a group of molecules:
- test.system: SMARCA4-HiBiT (Homo sapiens, UniProt P51532)
- Construct: SMARCA4-HiBiT knock-in Hela monoclonal cell (CS3023226); host or cells: HeLa monoclonal knock-in line (CRISPR HiBiT knock-in at the endogenous locus, heterozygous)
- Sequence (P51532 whole entry): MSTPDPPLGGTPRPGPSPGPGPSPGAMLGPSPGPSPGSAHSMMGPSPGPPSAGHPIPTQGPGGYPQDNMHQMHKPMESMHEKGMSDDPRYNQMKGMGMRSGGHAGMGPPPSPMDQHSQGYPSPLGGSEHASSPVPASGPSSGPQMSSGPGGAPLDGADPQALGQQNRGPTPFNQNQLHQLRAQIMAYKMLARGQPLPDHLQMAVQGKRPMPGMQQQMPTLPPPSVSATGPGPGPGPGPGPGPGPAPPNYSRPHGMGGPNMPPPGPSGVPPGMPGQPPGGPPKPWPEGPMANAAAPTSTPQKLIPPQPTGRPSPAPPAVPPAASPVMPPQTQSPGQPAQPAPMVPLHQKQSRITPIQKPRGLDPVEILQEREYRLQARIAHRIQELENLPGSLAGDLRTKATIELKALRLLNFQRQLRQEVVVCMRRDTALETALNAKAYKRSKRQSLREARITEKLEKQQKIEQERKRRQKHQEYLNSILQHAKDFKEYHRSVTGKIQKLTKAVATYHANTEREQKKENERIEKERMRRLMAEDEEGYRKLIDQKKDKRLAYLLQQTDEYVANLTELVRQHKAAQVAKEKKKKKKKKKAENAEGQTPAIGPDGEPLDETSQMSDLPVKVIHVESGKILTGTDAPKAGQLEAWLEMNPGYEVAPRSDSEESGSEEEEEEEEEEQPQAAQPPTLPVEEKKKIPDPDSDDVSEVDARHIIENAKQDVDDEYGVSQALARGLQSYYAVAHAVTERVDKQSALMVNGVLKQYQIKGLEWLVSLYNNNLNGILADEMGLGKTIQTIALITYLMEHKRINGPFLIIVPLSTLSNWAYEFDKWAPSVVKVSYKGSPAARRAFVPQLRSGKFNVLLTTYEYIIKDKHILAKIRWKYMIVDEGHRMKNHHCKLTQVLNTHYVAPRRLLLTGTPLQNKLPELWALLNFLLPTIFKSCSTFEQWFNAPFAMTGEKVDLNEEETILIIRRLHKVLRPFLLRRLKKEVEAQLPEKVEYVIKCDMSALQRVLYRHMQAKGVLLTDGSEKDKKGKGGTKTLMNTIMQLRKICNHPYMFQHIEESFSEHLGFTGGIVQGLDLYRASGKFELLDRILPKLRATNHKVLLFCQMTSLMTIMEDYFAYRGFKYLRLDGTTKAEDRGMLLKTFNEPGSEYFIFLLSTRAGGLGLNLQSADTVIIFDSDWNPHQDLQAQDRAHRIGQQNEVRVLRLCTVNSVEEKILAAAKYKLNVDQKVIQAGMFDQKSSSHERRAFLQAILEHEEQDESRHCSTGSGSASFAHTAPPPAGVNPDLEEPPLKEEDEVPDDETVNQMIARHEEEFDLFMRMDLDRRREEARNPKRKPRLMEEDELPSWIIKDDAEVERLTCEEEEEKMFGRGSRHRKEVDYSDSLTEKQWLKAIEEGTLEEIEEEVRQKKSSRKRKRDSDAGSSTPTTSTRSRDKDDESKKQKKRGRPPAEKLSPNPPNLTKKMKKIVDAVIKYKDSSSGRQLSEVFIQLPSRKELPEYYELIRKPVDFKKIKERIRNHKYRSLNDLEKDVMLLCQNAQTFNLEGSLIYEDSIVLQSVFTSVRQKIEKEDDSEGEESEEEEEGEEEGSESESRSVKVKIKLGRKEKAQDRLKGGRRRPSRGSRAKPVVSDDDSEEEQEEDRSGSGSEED
- protocol: SMARCA4 HiBiT degradation assay in HeLa cells
- Type: cell-based
- measurement.context: 18 hours incubation, read-out: HeLa-HiBit-SM4 DC50
- Procedure: HiBiT peptide knock-in of SMARCA2 in LgBiT expressing HEK293T cells was performed by CRISPR-mediated tagging system as described Promega. The homozygous HiBiT knock-in on c-terminus SMARCA2 was confirmed by sanger sequence. SMARCA2-HiBiT knock-in Hela monoclonal cell (CS302366) and SMARCA4-HiBiT knock-in Hela monoclonal cell (CS3023226) were purchased from Promega. The heterozygous HiBiT-knock-in was confirmed by sanger sequence in both SMARCA2-HiBiT and SMARCA4-HiBiT monoclonal cells. […]

Solved cases below.
# molecule, DC50
rows = [
    ("O=C1CCC(N2C(=O)c3ccc(N4CCOC(CN5CCN(C(=O)N6CCN7c8cc(-c9ccccc9O)nnc8NC[C@H]7C6)CC5)C4)cc3C2=O)C(=O)N1 (stereo partly shown)", "10 to 100 nM"),
    ("O=C1CCC(N2Cc3ccc(N4CCN(CCCN5CCC(CN6CCN7c8cc(-c9ccccc9O)nnc8NC[C@H]7C6)CC5)CC4)cc3C2=O)C(=O)N1 (stereo partly shown)", "10 to 100 nM"),
    ("CN(CCNc1ccc2c(c1)C(=O)N(C1CCC(=O)NC1=O)C2=O)C1CCC(N2CCN3c4cc(-c5ccccc5O)nnc4NC[C@H]3C2)CC1 (stereo partly shown)", "< 10 nM"),
    ("CC1CN(C(=O)N2CCN3c4cc(-c5ccccc5O)nnc4NC[C@H]3C2)CCN1CC1CCN(c2ccc3c(c2)C(=O)N(C2CCC(=O)NC2=O)C3)CC1 (stereo partly shown)", "< 10 nM"),
    ("O=C1CCC(N2C(=O)c3ccc(NCCN4CCC(N5CCN6c7cc(-c8cc(F)ccc8O)nnc7NC[C@H]6C5)CC4)cc3C2=O)C(=O)N1 (stereo partly shown)", "< 10 nM"),
    ("O=C1CCC(N2C(=O)c3cccc(N4CCC(CCCN5CCC(N6CCN7c8cc(-c9ccccc9O)nnc8NC[C@H]7C6)C(F)C5)CC4)c3C2=O)C(=O)N1 (stereo partly shown)", "< 10 nM"),
    ("O=C1CCC(N2Cc3ccc(N4CCN(CC5CCN(C(=O)N6CCN7c8cc(-c9ccccc9O)nnc8NC[C@H]7C6)CC5)CC4)cc3C2=O)C(=O)N1 (stereo partly shown)", "< 10 nM"),
    ("CC1CN(CCCC2CCN(c3cccc4c3C(=O)N(C3CCC(=O)NC3=O)C4=O)CC2)CCC1N1CCN2c3cc(-c4ccccc4O)nnc3NC[C@H]2C1 (stereo partly shown)", "< 10 nM"),
]

Which measured DC50 value corresponds to O=C1CCC(N2C(=O)c3ccc(N4CCC5(CC4)CC(CN4CCC(CN6CCN7c8cc(-c9ccccc9O)nnc8NC[C@H]7C6)CC4)C5)cc3C2=O)C(=O)N1 (stereo partly shown) ?
< 10 nM

Which measured DC50 value corresponds to O=C1CCC(N2C(=O)c3ccc(N4CC[C@H](CN5CCC(C(=O)N6CCN7c8cc(-c9cc(F)ccc9O)nnc8NC[C@H]7C6)CC5)[C@@H](F)C4)cc3C2=O)C(=O)N1 (stereo partly shown) [Example 279] ?
< 10 nM

---

- test.system: SMARCA4-HiBiT (Homo sapiens, UniProt P51532)
- Construct: SMARCA4-HiBiT knock-in Hela monoclonal cell (CS3023226); host or cells: HeLa monoclonal knock-in line (CRISPR HiBiT knock-in at the endogenous locus, heterozygous)
- protocol: SMARCA4 HiBiT degradation assay in HeLa cells
- Type: cell-based
- measurement.context: HeLa, 18 hours incubation, read-out: HeLa-HiBit-SM4 Dmax (%)
quantity: Dmax

# compound, quantity, measured
rows = [
    ("O=C1CCC(N2C(=O)c3ccc(N4C[C@H]5CC(N6CCC(CN7CCN8c9cc(-c%10ccccc%10O)nnc9NC[C@H]8C7)CC6)[C@H]5C4)cc3C2=O)C(=O)N1 (stereo partly drawn)", "Dmax", "75 to 85%"),
    ("CC1(CN2CCN3c4cc(-c5ccccc5O)nnc4NC[C@H]3C2)CCN(CC2CCN(c3ccc4c(c3)CN(C3CCC(=O)NC3=O)C4=O)CC2)CC1 (stereo partly drawn)", "Dmax", "> 85%"),
]

For the next question, use this compound.
Which measured Dmax value corresponds to O=C1CCC(N2Cc3cc(C4CCN(C5CCCN(CCCN6CCN7c8cc(-c9ccccc9O)nnc8NC[C@H]7C6)C5)CC4)ccc3C2=O)C(=O)N1 (stereo partly drawn) ?
75 to 85%

---

- test.system: SMARCA4-HiBiT (Homo sapiens)
- Construct: SMARCA4-HiBiT knock-in Hela monoclonal cell (CS3023226); host or cells: HeLa monoclonal knock-in line (CRISPR HiBiT knock-in at the endogenous locus, heterozygous)
- protocol: SMARCA4 HiBiT degradation assay in HeLa cells
- Type: cell-based
- measurement.context: 18 hours incubation, read-out: HeLa-HiBit-SM4 DC50
quantity: DC50

# compound, DC50
data = [
    ("CC(CN1CCC(N2CCN3c4cc(-c5ccccc5O)nnc4NC[C@H]3C2)CC1)Oc1ccc2c(c1)CN([C@@H]1CCC(=O)NC1=O)C2=O (stereo partly drawn) [Example 214]", "< 10 nM"),
    ("N#CC1(CN2CCC(CN3CCN4c5cc(-c6ccccc6O)nnc5NC[C@H]4C3)CC2)CCN(c2ccc3c(c2)C(=O)N(C2CCC(=O)NC2=O)C3=O)CC1 (stereo partly drawn) [Example 179]", "< 10 nM"),
    ("O=C1CCC(n2c3ccc(CCCN4CCC(N5CCN(C6C[C@@H]7CNc8nnc(-c9ccccc9O)cc8N7C6)CC5)CC4)cc3c3cccnc32)C(=O)N1 (stereo partly drawn) [Example 27]", "< 10 nM"),
]

Test system SMARCA4-HiBiT (Homo sapiens); read-out DC50; what value for O=C1CCC(N2Cc3cc(CCN4CCC(N5CCC(N6CCN7c8cc(-c9ccccc9O)nnc8NC[C@H]7C6)CC5)CC4)ccc3C2=O)C(=O)N1 (stereo partly drawn) [Example 62] ?
< 10 nM

Test system SMARCA4-HiBiT (Homo sapiens); read-out DC50; what value for O=C1CCC(N2C(=O)c3ccc(N4CCC(CN5CC6CC(CN7CCN8c9cc(-c%10ccccc%10O)nnc9NC[C@H]8C7)C6C5)C(F)(F)C4)cc3C2=O)C(=O)N1 (stereo partly drawn) [Example 188] ?
< 10 nM

Test system SMARCA4-HiBiT (Homo sapiens); read-out DC50; what value for CC(COc1ccc2c(c1)CN([C@@H]1CCC(=O)NC1=O)C2=O)N1CCC(N2CCN3c4cc(-c5ccccc5O)nnc4NC[C@H]3C2)CC1 (stereo partly drawn) [Example 215] ?
10 to 100 nM

---

- test.system: SMARCA2-HiBiT (Homo sapiens)
- Construct: SMARCA2-HiBiT knock-in Hela monoclonal cell (CS302366); host or cells: HeLa monoclonal knock-in line (CRISPR HiBiT knock-in at the endogenous locus, heterozygous)
- Sequence (P51531 whole entry): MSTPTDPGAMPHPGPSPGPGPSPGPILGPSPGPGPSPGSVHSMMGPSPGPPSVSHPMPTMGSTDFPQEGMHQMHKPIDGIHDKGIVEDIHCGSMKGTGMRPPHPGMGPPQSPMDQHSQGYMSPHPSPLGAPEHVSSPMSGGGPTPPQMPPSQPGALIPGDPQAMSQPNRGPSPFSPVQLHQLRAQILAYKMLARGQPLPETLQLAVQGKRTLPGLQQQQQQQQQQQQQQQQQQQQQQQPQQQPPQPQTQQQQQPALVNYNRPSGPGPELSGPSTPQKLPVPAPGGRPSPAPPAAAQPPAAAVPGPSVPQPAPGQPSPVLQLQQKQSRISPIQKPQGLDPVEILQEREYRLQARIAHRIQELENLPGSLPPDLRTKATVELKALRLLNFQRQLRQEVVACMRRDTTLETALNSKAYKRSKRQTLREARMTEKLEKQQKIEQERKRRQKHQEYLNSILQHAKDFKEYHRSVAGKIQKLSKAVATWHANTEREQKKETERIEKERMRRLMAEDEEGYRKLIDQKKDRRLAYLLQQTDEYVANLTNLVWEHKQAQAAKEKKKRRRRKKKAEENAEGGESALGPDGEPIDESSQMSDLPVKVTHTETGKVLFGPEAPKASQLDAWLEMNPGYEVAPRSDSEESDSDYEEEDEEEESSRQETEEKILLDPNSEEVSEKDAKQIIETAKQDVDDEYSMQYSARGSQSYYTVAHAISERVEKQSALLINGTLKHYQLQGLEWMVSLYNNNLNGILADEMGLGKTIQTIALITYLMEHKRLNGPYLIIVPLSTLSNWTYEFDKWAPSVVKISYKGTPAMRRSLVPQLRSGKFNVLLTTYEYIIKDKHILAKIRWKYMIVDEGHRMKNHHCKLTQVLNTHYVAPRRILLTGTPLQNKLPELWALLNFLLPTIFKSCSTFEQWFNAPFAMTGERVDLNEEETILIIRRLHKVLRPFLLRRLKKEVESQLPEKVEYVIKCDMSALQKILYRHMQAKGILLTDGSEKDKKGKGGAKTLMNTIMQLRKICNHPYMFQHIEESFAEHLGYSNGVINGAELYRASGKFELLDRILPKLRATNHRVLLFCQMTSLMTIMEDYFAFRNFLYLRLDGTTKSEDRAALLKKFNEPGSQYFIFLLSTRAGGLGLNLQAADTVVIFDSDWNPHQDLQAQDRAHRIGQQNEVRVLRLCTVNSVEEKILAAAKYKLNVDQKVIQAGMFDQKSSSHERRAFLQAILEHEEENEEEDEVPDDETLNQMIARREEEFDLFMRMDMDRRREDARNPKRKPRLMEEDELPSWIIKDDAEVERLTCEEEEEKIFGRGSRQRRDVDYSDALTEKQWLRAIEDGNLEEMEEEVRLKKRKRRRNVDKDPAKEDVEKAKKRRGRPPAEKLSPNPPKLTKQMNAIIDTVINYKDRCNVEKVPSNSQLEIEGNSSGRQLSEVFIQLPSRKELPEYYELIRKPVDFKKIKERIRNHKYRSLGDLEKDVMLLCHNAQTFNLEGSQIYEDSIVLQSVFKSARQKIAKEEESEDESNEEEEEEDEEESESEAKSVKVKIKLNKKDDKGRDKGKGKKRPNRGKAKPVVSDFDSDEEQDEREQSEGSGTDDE
- protocol: SMARCA2 HiBiT degradation assay in HeLa cells
- Type: cell-based
- measurement.context: HeLa, 18 hours incubation, read-out: HeLa-HiBit-SM2 Dmax (%)
Overview of reported Dmax across a group of molecules:

Solved cases below.
# molecule, Dmax
data = [
    ("O=C1CCC(NC(=O)c2ccc(N3CCC(CN4CCC(N5CCN6c7cc(-c8ccccc8O)nnc7NC[C@H]6C5)CC4)CC3)cn2)C(=O)N1 (some centres unmarked) [Example 24]", "> 85%"),
    ("CC(C1CCN(c2ccc3c(c2)C(=O)N(C2CCC(=O)NC2=O)C3=O)CC1)N1CCC(CN2CCN3c4cc(-c5ccccc5O)nnc4NCC3C2)CC1 (stereo in doubt) [Example 160]", "75 to 85%"),
]

Which measured Dmax value corresponds to O=C1CCC(N2C(=O)c3ccc(N4CCC(CN5C6COCC5CC(CN5CCN7c8cc(-c9ccccc9O)nnc8NC[C@H]7C5)C6)CC4)cc3C2=O)C(=O)N1 (some centres unmarked) [Example 133] ?
50 to 75%

Which measured Dmax value corresponds to C[C@H]1CN2c3cc(-c4ccccc4O)nnc3NC[C@H]2CN1C[C@H]1[C@@H]2CN(C[C@H]3CCN(c4ccc5c(c4)C(=O)N(C4CCC(=O)NC4=O)C5)C[C@@H]3F)C[C@@H]21 (some centres unmarked) [Example 204] ?
75 to 85%

Which measured Dmax value corresponds to O=C1CCC(N2C(=O)c3ccc(N4CCC(N5C[C@@H]6[C@@H](CN7CCN8c9cc(-c%10ccccc%10O)nnc9NC[C@H]8C7)[C@@H]6C5)CC4)cc3C2=O)C(=O)N1 (some centres unmarked) [Example 90] ?
50 to 75%
